Test system: Kuramochi cells labeled with mApple-H2B
Assay: IncuCyte Cell Proliferation Assay
Assay type: cell-based
Conditions: 72 h
readout type: IC50

1. C[C@@H](OCC1CCCCC1)[C@@H](CO)NC(=O)[C@H]1CN(C(=O)c2cnn(Cc3ccccc3)c2)CC12CN(C(=O)[C@H]1CC1(C)C)C2 [I-135B]; 5 to 20 µM
2. COC[C@H]1CCCN(C(=O)[C@@H](C)NC(=O)[C@@H]2CN(C(=O)c3cncs3)CC23CN(C(=O)[C@H]2CC2(C)C)C3)C1 [I-324]; > 20 µM
3. CNC(=O)[C@@H](NC(=O)[C@@H]1CN(C(=O)c2cnn(Cc3ccccc3)c2)CC12CN(C(=O)[C@H]1CC1(C)C)C2)[C@@H](C)OCCC1CCCCC1 [I-125A]; ≤ 0.5 µM
4. CC(=O)N1C[C@@H](C(=O)N[C@H](C(=O)N2CCCCC2)[C@@H](C)OCC2CCCCC2)C2(C1)CN(C(=O)[C@H]1CC1(C)C)C2 [I-118]; > 20 µM
5. C[C@@H](OCC1CCCCC1)[C@@H](COC1CCOCC1)NC(=O)[C@@H]1CN(C(=O)c2cncs2)CC12CN(C(=O)[C@H]1CC1(C)C)C2 [I-331]; ≤ 0.5 µM
6. CNC(=O)[C@@H](NC(=O)[C@H]1CN(C(=O)c2scnc2C2CCCC2)CC12CN(C(=O)[C@H]1CC1(C)C)C2)[C@@H](C)OCC1CCCCC1 [I-224A]; > 20 µM
7. COC[C@H]1CCCN(C(=O)[C@@H](NC(=O)[C@@H]2CN(C(=O)c3cncs3)CC23CN(C(=O)[C@H]2CC2(C)C)C3)[C@@H](C)OC[C@H]2CC[C@@H](OC)CC2)C1 [I-408]; 0.5 to 5 µM
8. Cc1nc(C)c(C(=O)N2C[C@@H](C(=O)N[C@H](C(=O)N3CCC4(CC3)COC4)[C@@H](C)OCC34CCC(CC3)OC4)C3(C2)CN(C(=O)[C@H]2CC2(C)C)C3)s1 [I-343]; > 20 µM
9. CNC(=O)C(NC(=O)[C@@H]1CN(C(=O)c2cncs2)CC12CN(C(=O)[C@H]1CC1(C)C)C2)c1nc(C2CCCCC2)co1 (some centres unmarked) [I-425]; > 20 µM
10. C[C@@H](OCC1(C(F)(F)F)CC1)[C@H](NC(=O)[C@@H]1CN(C(=O)c2cncs2)CC12CN(C(=O)[C@H]1CC1(C)C)C2)C(=O)N1CCCCC1 [I-285]; > 20 µM
11. C[C@@H](OCC1CCC(F)(F)CC1)[C@H](NC(=O)[C@@H]1CN(C(=O)c2cncs2)CC12CN(C(=O)[C@H]1CC1(C)C)C2)C(=O)N1CCC2(CC1)COC2 [I-335]; 0.5 to 5 µM
12. CNC(=O)[C@@H](NC(=O)[C@@H]1CN(C(=O)c2cncs2)CC12CN(C(=O)[C@H]1CC1(C)C)C2)[C@@H](C)OCC1CCCCC1 [I-129A]; 0.5 to 5 µM
13. CN(C)C(=O)C(NC(=O)[C@@H]1CN(C(=O)c2cncs2)CC12CN(C(=O)C(C)(C)C1CC1)C2)c1cccc(C2CCOCC2)n1 (some centres unmarked) [I-340]; > 20 µM
14. COC[C@H]1CCCN(C(=O)[C@@H](NC(=O)[C@@H]2CN(C(=O)c3cncs3)CC23CN(C(=O)[C@H]2CC2(C)C)C3)[C@@H](C)OCc2ccc(OC(F)(F)F)cc2)C1 [I-320]; 0.5 to 5 µM
15. C[C@@H](OCC1CCCCC1)[C@H](NC(=O)[C@@H]1CN(C(=O)c2cncs2)CC12CN(C(=O)[C@H]1CC1(C)C)C2)C(=O)N1CCC(F)(F)CC1 [I-192A]; ≤ 0.5 µM
16. CNC(=O)[C@@H](NC(=O)[C@@H]1CN(C(=O)c2sc(COC)nc2C)CC12CN(C(=O)[C@H]1CC1(C)C)C2)[C@@H](C)OCC1CCCCC1 [I-162A]; 5 to 20 µM
17. CNC(=O)[C@@H](NC(=O)[C@@H]1CN(C(=O)Cc2cnn(Cc3ccccc3)c2)CC12CN(C(=O)[C@H]1CC1(C)C)C2)[C@@H](C)OCc1ccccc1 [I-373]; > 20 µM
18. COC[C@H]1CCCN(C(=O)[C@@H](NC(=O)[C@@H]2CN(C(=O)c3cncs3)CC23CN(C(=O)[C@H]2CC2(C)C)C3)[C@@H](C)OC[C@H]2CC[C@H](OC(F)(F)F)CC2)C1 [I-435]; 0.5 to 5 µM
19. CNC(=O)[C@H](CO)NC(=O)C1CN(C(=O)c2cnn(Cc3ccccc3)c2)CC12CN(C(=O)[C@H]1CC1(C)C)C2 (some centres unmarked) [I-260]; > 20 µM
20. CNC(=O)[C@@H](NC(=O)[C@@H]1CN(C(=O)c2cncs2)CC12CN(C(=O)[C@H]1CC1(C)C)C2)C1(OCc2ccccc2)CC1 [I-375]; > 20 µM
